# systemTested: T1, human C5aR (CD88) (human, UniProt P21730 1-350)
# T1 sequence (looked up): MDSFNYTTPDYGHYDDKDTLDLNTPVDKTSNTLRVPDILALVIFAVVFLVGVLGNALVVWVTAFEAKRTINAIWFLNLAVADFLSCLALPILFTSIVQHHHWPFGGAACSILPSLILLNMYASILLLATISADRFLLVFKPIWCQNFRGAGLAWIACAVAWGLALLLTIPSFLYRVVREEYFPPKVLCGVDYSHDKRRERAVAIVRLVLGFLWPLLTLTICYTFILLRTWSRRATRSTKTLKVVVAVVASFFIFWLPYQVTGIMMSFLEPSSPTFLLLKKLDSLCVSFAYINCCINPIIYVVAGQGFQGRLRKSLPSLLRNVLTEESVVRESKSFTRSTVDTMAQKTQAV
# measurementDescription: cell-based or functional assay
Positions of bridges follow the written chain, without caps; N, C: chain ends. Non-standard residues stand in square brackets, D forms with d. No end group written: not given here. dCha = N[C@H](CC1CCCCC1)C(=O)O; Orn = NCCC[C@H](N)C(=O)O
Quick reference: IC50, functional assay of the listed items.

| binder | IC50, functional assay |
| --- | --- |
| Ac-F[Orn]P[dA]WR (lactam (positions not given here); not fully specified (bridges); printed as Ac-Phe-[Orn-Pro-ala-Trp-Arg]) [Ac-Phe-[Orn-Pro-ala-Trp-Arg]] | > 30 µM |
| Ac-F[Orn]P[dCha]WA (lactam (positions not given here); not fully specified (bridges); printed as Ac-Phe-[Orn-Pro-cha-Trp-Ala]) [Ac-Phe-[Orn-Pro-cha-Trp-Ala]] | 5.6 µM |
| Ac-A[Orn]P[dCha]WR (lactam 2-C; SMILES CC(=O)N[C@@H](C)C(=O)N[C@H]1CCCNC(=O)[C@H](CCCNC(=N)N)NC(=O)[C@H](Cc2c[nH]c3ccccc23)NC(=O)[C@@H](CC2CCCCC2)NC(=O)[C@@H]2CCCN2C1=O) [Ac-Ala-[Orn-Pro-cha-Trp-Arg]] | > 30 µM |
| Ac-F[Orn]P[dCha]AR (lactam (positions not given here); not fully specified (bridges); printed as Ac-Phe-[Orn-Pro-cha-Ala-Arg]) [Ac-Phe-[Orn-Pro-cha-Ala-Arg]] | > 30 µM |
